test_details: Pharmacokinetic study in Beagle dogs
Format: in vivo
settings: dog, plasma, Oral (2 mg/kg)
Method: The pharmacokinetics of test compounds were evaluated in male C57BL/6 mice, Sprague Dawley rats, Beagle dogs, and cynomolgus monkeys when administered via oral gavage and IV injection. The animals were fasted overnight before administration. […] The samples were analyzed by LC/MS/MS and the concentration of test compound at each timepoint was determined by linear regression. Pharmacokinetic parameters were calculated from the plasma concentrations using Pheonix WinNonlin.
property_label: Tmax (h)
One number for each entry, in h.

Below, 5 compounds whose answers are already recorded.
| compound | Tmax [h] |
| --- | --- |
| [2H]C([2H])([2H])CC(=O)c1cnc(NC(=O)C2CC2)cc1Nc1nccc(-c2ncn(C([2H])([2H])[2H])n2)c1OC [Example 200] | 1.33 |
| [2H]C([2H])([2H])CC(=O)c1cnc(Nc2ccc(C(C)(C)O)c(F)n2)cc1Nc1cccc(-c2ncn(C([2H])([2H])[2H])n2)c1OC [Example 202] | 1 |
| [2H]C([2H])([2H])CC(=O)c1cnc(Nc2cccc(C#N)n2)cc1Nc1cccc(-c2ncn(C([2H])([2H])[2H])n2)c1OC [Example 198] | 1.67 |
| [2H]C([2H])([2H])CC(=O)c1cnc(NC(=O)C2CC2)cc1Nc1cccc(-c2ncn(C([2H])([2H])[2H])n2)c1OC [Example 195] | 1.33 |
| [2H]C([2H])([2H])CC(=O)c1cnc(Nc2ccc(C(C)(C)O)c(F)n2)cc1Nc1nccc(-c2ncn(C([2H])([2H])[2H])n2)c1OC [Example 201] | 2 |

// recorded Tmax for [2H]C([2H])([2H])CC(=O)c1cnc(Nc2cccc(C#N)n2)cc1Nc1nccc(-c2ncn(C([2H])([2H])[2H])n2)c1OC [Example 199] : 1.33

====

Test system: IL12-induced p-STAT4 in human PBMC
test_details: IL-12 induced pSTAT4 in human PBMC
Type: cell-based
settings: human PBMC, IL-12 10 ng/ml; read-out: p-STAT4 IC50
Give IC50 for every item shown.

| compound | IC50 |
| --- | --- |
| [2H]C([2H])([2H])NC(=O)c1c(Nc2cccc(-c3nnn(C)n3)c2OC)cc(NC(=O)C2CC2)nc1F [Example 42] | 100 to 1000 nM |
| [2H]C([2H])([2H])NC(=O)c1nnc(N2CCN(C3CCOCC3)C2=O)cc1Nc1cccc(-c2ncn(C)n2)c1OC [Example 86] | < 100 nM |
| COc1c(Nc2cc(NC(=O)C3CC3)nc3c2C2=NC(=O)CN2C3)cccc1-c1ncn(C)n1 [Example 41] | 1000 to 10000 nM |
| [2H]C([2H])([2H])NC(=O)c1nnc(N2CCN(C3CCCOC3)C2=O)cc1Nc1cccc(-c2ncn(C)n2)c1OC (stereo not shown) [Example 98] | < 100 nM |
| [2H]C([2H])([2H])NC(=O)c1nnc(N2CCN(C3CCC3)C2=O)cc1Nc1cccc(-c2ncn(C)n2)c1OC([2H])([2H])[2H] [Example 20] | < 100 nM |
| [2H]C([2H])([2H])NC(=O)c1nnc(N2CCN(C(C3CC3)C(F)(F)F)C2=O)cc1Nc1cccc(-c2ncn(C)n2)c1OC (stereo not shown) [Example 87] | < 100 nM |

Dear colleague, could you send me IC50 for each of the items below? Thanks.
1. [2H]C([2H])([2H])NC(=O)c1nnc(-n2ccn(C)c2=O)cc1Nc1cccc(-c2ncn(C)n2)c1OC [Example 63]
2. [2H]C([2H])([2H])NC(=O)c1nnc(N2CCN(C3C[C@@H]3F)C2=O)cc1Nc1cccc(-c2ncn(C)n2)c1OC (stereo partly shown) [Example 78]

["100 to 1000 nM", "< 100 nM"]

Dear colleague, could you send me IC50 for each of the items below? Thanks.
1. COc1c(Nc2cc(NC(=O)C3CC3)nnc2C(C)=O)cccc1-c1ncn(C)n1 [Example 24]
2. [2H]C([2H])([2H])NC(=O)c1nnc(N2CCN(CC3(C)COC3)C2=O)cc1Nc1cccc(-c2ncn(C)n2)c1OC [Example 72]
3. [2H]C([2H])([2H])NC(=O)c1nnc(N/C(=N/O)C2CC2)cc1Nc1cccc(-c2ncn(C)n2)c1OC [Example 40]

100 to 1000 nM
< 100 nM
100 to 1000 nM

Dear colleague, could you send me IC50 for each of the items below? Thanks.
1. [2H]C([2H])([2H])NC(=O)c1nnc(N2CCN(C3(C)CC3)C2=O)cc1Nc1cccc(-c2ncn(C)n2)c1OC [Example 88]
2. COc1c(Nc2cc(NC(=O)C3CC3)nnc2C(=O)C2CC2)cccc1-c1ncn(C)n1 [Example 26]
3. [2H]C([2H])([2H])NC(=O)c1nnc(N2CCN(C(C([2H])([2H])[2H])C([2H])([2H])[2H])C2=O)cc1Nc1cccc(-c2ncn(C)n2)c1OC [Example 103]
4. COc1c(Nc2cc(NC(=O)C3CC3)nc3ncn(C)c(=O)c23)cccc1-c1ncn(C)n1 [Example 39]
5. [2H]C([2H])([2H])NC(=O)c1nnc(N2CCN(CCC)C2=O)cc1Nc1cccc(-c2ncn(C)n2)c1OC [Example 99]
6. [2H]C([2H])([2H])NC(=O)c1nnc(N2CCN(C(C)C#C)C2=O)cc1Nc1cccc(-c2ncn(C)n2)c1OC (stereo not shown) [Example 84]

1: < 100 nM; 2: < 100 nM; 3: < 100 nM; 4: 100 to 1000 nM; 5: < 100 nM; 6: < 100 nM

Dear colleague, could you send me IC50 for each of the items below? Thanks.
1. [2H]C([2H])([2H])NC(=O)c1nnc(N2CCCC2=O)cc1Nc1cccc(-c2ncn(C)n2)c1OC [Example 56]
2. [2H]C([2H])([2H])NC(=O)c1nnc(N2CCC3(CC3)C2=O)cc1Nc1cccc(-c2ncn(C)n2)c1OC [Example 4]
3. [2H]C([2H])([2H])NC(=O)c1nnc(N2CCN(C3CC3)C2=O)cc1Nc1cccc(-c2ncn(C)n2)c1OC [Example 5]

["100 to 1000 nM", "< 100 nM", "< 100 nM"]

Dear colleague, could you send me IC50 for each of the items below? Thanks.
1. [2H]C([2H])([2H])NC(=O)c1nnc(N2CC(F)(F)C2=O)cc1Nc1cccc(-c2ncn(C)n2)c1OC [Example 57]
2. [2H]C([2H])([2H])NC(=O)c1nnc(N2CCC(C)C2=O)cc1Nc1cccc(-c2ncn(C)n2)c1OC (stereo not shown) [Example 64]
3. [2H]C([2H])([2H])NC(=O)c1nnc(N2CCN(C34CC(C3)C4)C2=O)cc1Nc1cccc(-c2ncn(C)n2)c1OC [Example 19]
4. [2H]C([2H])([2H])n1cnc(-c2cccc(Nc3cc(NC(=O)C4CC4)ncc3C(=O)C3CC3)c2OC)n1 [Example 54]
5. [2H]C([2H])([2H])NC(=O)c1nnc(N2CCN(C(C)(C)C)C2=O)cc1Nc1cccc(-c2ncn(C)n2)c1OC [Example 89]
6. [2H]C([2H])([2H])NC(=O)c1nnc(N2CCN(CC3CCCO3)C2=O)cc1Nc1cccc(-c2ncn(C)n2)c1OC (stereo not shown) [Example 74]
7. [2H]C([2H])([2H])NC(=O)c1nnc(N2CCN(CCOC)C2=O)cc1Nc1cccc(-c2ncn(C)n2)c1OC [Example 9]

1: 1000 to 10000 nM; 2: 100 to 1000 nM; 3: < 100 nM; 4: < 100 nM; 5: < 100 nM; 6: < 100 nM; 7: < 100 nM

// recorded IC50 for [2H]C([2H])([2H])NC(=O)c1nnc(N2CCN(CC(F)(F)F)C2=O)cc1Nc1cccc(-c2ncn(C)n2)c1OC [Example 67] : < 100 nM

====

test_details: Pharmacokinetic study in Beagle dogs
Assay type: in vivo
settings: dog, plasma, iv, I.V. (0.5 mg/kg), read-out: C0 or Cmax (C0)
property_label: Cmax (ng/mL)
Give bare numbers, in ng/mL.

// recorded Cmax for [2H]C([2H])([2H])CC(=O)c1cnc(NC(=O)C2CC2)cc1Nc1nccc(-c2ncn(C([2H])([2H])[2H])n2)c1OC : 29.7

====

test_details: Pharmacokinetic study in cynomolgus monkeys
Assay type: in vivo
settings: cynomolgus monkey, plasma, iv, I.V. (1 mg/kg)
Experimental: The pharmacokinetics of test compounds were evaluated in male C57BL/6 mice, Sprague Dawley rats, Beagle dogs, and cynomolgus monkeys when administered via oral gavage and IV injection. The animals were fasted overnight before administration. […] The samples were analyzed by LC/MS/MS and the concentration of test compound at each timepoint was determined by linear regression. Pharmacokinetic parameters were calculated from the plasma concentrations using Pheonix WinNonlin.
property_label: AUC (ng·h/mL)
One number for each entry, in ng·h/mL.

Below, 4 molecules whose answers are already recorded.
| sample_smiles | property_label | reported_result |
| --- | --- | --- |
| [2H]C([2H])([2H])CC(=O)c1cnc(Nc2ccc(C(C)(C)O)c(F)n2)cc1Nc1nccc(-c2ncn(C([2H])([2H])[2H])n2)c1OC | AUC | 726 |
| [2H]C([2H])([2H])CC(=O)c1cnc(NC(=O)C2CC2)cc1Nc1cccc(-c2ncn(C([2H])([2H])[2H])n2)c1OC | AUC | 16300 |
| [2H]C([2H])([2H])CC(=O)c1cnc(NC(=O)C2CC2)cc1Nc1nccc(-c2ncn(C([2H])([2H])[2H])n2)c1OC | AUC | 7320 |
| [2H]C([2H])([2H])CC(=O)c1cnc(Nc2ccc(C(O)(C([2H])([2H])[2H])C([2H])([2H])[2H])c(F)n2)cc1Nc1ncccc1S(C)(=O)=O | AUC | 595 |

Okay, now this molecule:
// recorded AUC for [2H]C([2H])([2H])CC(=O)c1cnc(Nc2cccc(C#N)n2)cc1Nc1cccc(-c2ncn(C([2H])([2H])[2H])n2)c1OC : 1030
